- assayed.system: T1, LHD284B
- T1 construct: de novo designed protomer; BLI: one protomer of the pair was Avi-tagged, biotinylated and immobilised; also called LHD284 protomer B; source: E. coli BL21 LEMO, purified (Ni-NTA, SEC)
- protocol: BLI; biotinylated protomer on streptavidin biosensors, designed partner in solution; 25 °C; 10 mM HEPES pH 7.4, 150 mM NaCl, 3 mM EDTA, 0.05% Surfactant P20, 1 mg/ml BSA; steady-state fit, 1:1 model
- setup.conditions: both partners purified
readout.type: Kd

>>> observed_result("LHD284A (designed binder) TDELLERLRQLFEELHERGTIIIVEVHINGERQTKYLILAPKEELKKHLERIREKIEREGSSEVEVKVTSGGTTWTFNEK")
"97 nM"
